Biological target: 5-HT1A receptors (Rattus norvegicus, UniProt P19327)
Sequence (P19327 1-422): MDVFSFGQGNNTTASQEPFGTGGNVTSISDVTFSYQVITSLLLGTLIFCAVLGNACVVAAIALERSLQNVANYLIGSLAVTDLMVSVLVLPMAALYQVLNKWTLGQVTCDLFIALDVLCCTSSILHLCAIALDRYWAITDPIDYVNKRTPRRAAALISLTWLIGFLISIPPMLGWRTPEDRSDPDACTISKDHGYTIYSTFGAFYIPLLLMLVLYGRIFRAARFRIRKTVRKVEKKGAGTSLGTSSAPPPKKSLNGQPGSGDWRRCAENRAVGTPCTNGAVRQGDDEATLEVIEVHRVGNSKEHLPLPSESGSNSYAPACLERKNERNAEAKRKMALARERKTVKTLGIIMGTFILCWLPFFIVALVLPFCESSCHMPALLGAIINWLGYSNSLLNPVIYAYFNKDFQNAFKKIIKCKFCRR
Where a name gives a salt, the structure may show the parent alone.
experimental.endpoint: log10(Ki) (log10 of the value in nM)
Please note: log10 values; quantity Ki; unit nM.

Recorded log10(Ki), per entry:
# compound, measured.number
rows = [
    ("Nc1nn(-c2ccccc2)c(N)c1CN1CCN(c2cccc3c2OCCO3)CC1 [Example 11]", 1.20),
    ("Cn1c(N)c(CN2CCN(c3cccc4c3OCCO4)CC2)c(=O)n1-c1ccccc1 [Example 2]", 1.41),
    ("Cn1nc(C2CC2)c(CN2CCN(c3cccc4c3OCCO4)CC2)c1N [Example 18, hydrochloride]", 1.43),
    ("Cn1c(N)c(CN2CCN(c3cccc4ccoc34)CC2)c(=O)n1-c1ccccc1 [Example 7]", 1.38),
    ("CC1(CN2CCN(c3cccc(C(F)(F)F)c3)CC2)N=C(c2ccccc2)NC1=O (centres unmarked) [Example 41]", 2.35),
]

Q: Dear colleague, I am looking for the recorded log10(Ki) of the following compound: CC(C)(C)n1nc(C2CC2)c(CN2CCN(c3cccc4c3OCCO4)CC2)c1N [Example 24]
Result: 1.32

Q: What does the data say about its log10(Ki)? Entry: C=CCn1c(-c2cccnc2)nn(CCCCN2CCN(c3ccccc3OC)CC2)c1=O [Example 46]
Result: 1.81

Q: Which value of log10(Ki) has been reported for C=CCn1c(N)c(CN2CCN(c3cccc4c3OCCO4)CC2)c(=O)n1-c1ccccc1 [Example 6] in the records?
Result: 1.34

These measurements were taken from patent US6114334A.
